# Tested on: HOP-62 complex spheroids with HUVEC/MSC, viability
# measurement description: Anticancer human tumor HOP-62 cell line growth inhibition [RAS];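 note: spheroids exposed to agents for seven days before readout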;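 for viability, T/C: 100% = DMSO vehicle control viability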
# reported conditions: second compound 0.3 µM; first compound 0.316 µM; stronger effect = lower value
# Source text: RAS pathway inhibitors in Combinations in Complex Spheroids A high-throughput screen of multi-cell type tumor spheroids was designed to identify active combinations of RAS pathway inhibitors and targeted small molecules. Complex spheroids include a stromal component modeled by human endothelial cells (HUVEC) and fibroblasts modeled by human mesenchymal stem cells (MSCs). […] Compounds. […] If the clinical Cmax for an agent had not been determined, the highest concentration tested was 10 microM. […]
quantity measured: viability, T/C

Sample answers from the record:
| compound | system under test | viability, T/C |
| --- | --- | --- |
| C=CC(=O)N1CCN(c2nc(OCC3CCCN3C)nc3c(F)c(-c4nc(N)cc(C)c4C(F)(F)F)c(Cl)cc23)C(C)C1 (stereo not drawn) + CCn1c(-c2cc(N3CCN(C)CC3)cnc2C(C)OC)c2c3cc(ccc31)-c1csc(n1)CC(NC(=O)C1CC1C)C(=O)N1CCCC(N1)C(=O)OCC(C)(C)C2 | HOP-62 complex spheroids with HUVEC/MSC, viability | 31.7% |
| CCC(CC)c1cc(NC2CCC(N)C2)n2nccc2n1 (stereo not drawn) + CCn1c(-c2cccnc2C(C)OC)c2c3cc(ccc31)N1CCOC(CC(NC(=O)C(C(C)C)N(C)C(=O)C3(F)CCN(C(=O)C#CC(C)(C)N(C)C)CC3)C(=O)N3CCCC(N3)C(=O)OCC(C)(C)C2)C1 | HOP-62 complex spheroids with HUVEC/MSC, viability | 95% |

State the recorded viability, T/C for every item in the following list.
1. CC(C)NCC(C(=O)N1CCN(c2ncnc3c2C(C)CC3O)CC1)c1ccc(Cl)cc1 (stereo not drawn) + CCn1c(-c2cc(N3CCN(C)CC3)cnc2C(C)OC)c2c3cc(ccc31)-c1csc(n1)CC(NC(=O)C1CC1C)C(=O)N1CCCC(N1)C(=O)OCC(C)(C)C2
2. Cc1nc(N2CCC3(CC2)COC(C)C3N)c(CO)nc1Sc1ccnc(N)c1Cl (stereo not drawn) + CCn1c(-c2cccnc2C(C)OC)c2c3cc(ccc31)N1CCOC(CC(NC(=O)C(C(C)C)N(C)C(=O)C3(F)CCN(C(=O)C#CC(C)(C)N(C)C)CC3)C(=O)N3CCCC(N3)C(=O)OCC(C)(C)C2)C1
3. CCN1CCN(Cc2ccc(Nc3ncc(F)c(-c4cc(F)c5nc(C)n(C(C)C)c5c4)n3)nc2)CC1 + CCn1c(-c2cc(N3CCN(C)CC3)cnc2C(C)OC)c2c3cc(ccc31)-c1csc(n1)CC(NC(=O)C1CC1C)C(=O)N1CCCC(N1)C(=O)OCC(C)(C)C2

## Output
1: 29.6%; 2: 41.6%; 3: 40.7%

###

# Tested on: HOP-62 complex spheroids with HUVEC/MSC, viability
# measurement description: Anticancer human tumor HOP-62 cell line growth inhibition [RAS]; active = viability on the fitted dose curve at most 10% of control; inactive = the rest;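 note: spheroids exposed to agents for seven days before readout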
# reported conditions: second compound 0.000949 µM; first compound 10 µM
Hi there, use one of these labels in your reply, thanks! t for active, f for inactive

| molecule | system under test | discrete label |
| --- | --- | --- |
| C[C@@H](NC(=O)c1ncnc(N)c1Cl)c1ncc(C(=O)Nc2cc(C(F)(F)F)c(Cl)cn2)s1 + CCn1c(-c2cccnc2C(C)OC)c2c3cc(ccc31)N1CCOC(CC(NC(=O)C(C(C)C)N(C)C(=O)C3(F)CCN(C(=O)C#CC(C)(C)N(C)C)CC3)C(=O)N3CCCC(N3)C(=O)OCC(C)(C)C2)C1 | HOP-62 complex spheroids with HUVEC/MSC, viability | f |
| CCC(CC)c1cc(NC2CCC(N)C2)n2nccc2n1 (centres undefined) + CCn1c(-c2cc(N3CCN(C)CC3)cnc2C(C)OC)c2c3cc(ccc31)-c1csc(n1)CC(NC(=O)C1CC1C)C(=O)N1CCCC(N1)C(=O)OCC(C)(C)C2 | HOP-62 complex spheroids with HUVEC/MSC, viability | t |

## Input What did this assay record as the result for CCC(CC)c1cc(NC2CCC(N)C2)n2nccc2n1 (centres undefined) + CCn1c(-c2cccnc2C(C)OC)c2c3cc(ccc31)N1CCOC(CC(NC(=O)C(C(C)C)N(C)C(=O)C3(F)CCN(C(=O)C#CC(C)(C)N(C)C)CC3)C(=O)N3CCCC(N3)C(=O)OCC(C)(C)C2)C1 ?
## Output t

## Input Would you mind telling me which call this test gave NC1c2ccccc2OC12CCN(c1cnc3c(N4CCCc5ncccc54)n[nH]c3n1)CC2 (centres undefined) + CCn1c(-c2cc(N3CCN(C)CC3)cnc2C(C)OC)c2c3cc(ccc31)-c1csc(n1)CC(NC(=O)C1CC1C)C(=O)N1CCCC(N1)C(=O)OCC(C)(C)C2 ?
## Output f

###

# System: HOP-62 complex spheroids with HUVEC/MSC, viability
# measurement description: Anticancer human tumor HOP-62 cell line growth inhibition [RAS];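 note: spheroids exposed to agents for seven days before readout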
# reported conditions: curve of first compound; second compound 0.000949 µM
quantity measured: IC50

| compound | quantity measured | observed value |
| --- | --- | --- |
| CC1(O)CCCC1n1c(=O)c(C(F)F)cc2cnc(NC3CCN(S(C)(=O)=O)CC3)nc21 (configuration not stated) + CCn1c(-c2cc(N3CCN(C)CC3)cnc2C(C)OC)c2c3cc(ccc31)-c1csc(n1)CC(NC(=O)C1CC1C)C(=O)N1CCCC(N1)C(=O)OCC(C)(C)C2 | IC50 | 5.05 µM |

# input for lookup
## Input Which measured IC50 value corresponds to C=CC(=O)Nc1cc(Nc2nccc(-c3cn(C)c4ccccc34)n2)c(OC)cc1N(C)CCN(C)C + CCn1c(-c2cccnc2C(C)OC)c2c3cc(ccc31)N1CCOC(CC(NC(=O)C(C(C)C)N(C)C(=O)C3(F)CCN(C(=O)C#CC(C)(C)N(C)C)CC3)C(=O)N3CCCC(N3)C(=O)OCC(C)(C)C2)C1 ?
## Output > 1 µM

###

# System: HOP-62 complex spheroids with HUVEC/MSC, viability
# measurement description: Anticancer human tumor HOP-62 cell line growth inhibition [RAS]; active = viability on the fitted dose curve at most 10% of control; inactive = the rest;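 note: spheroids exposed to agents for seven days before readout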
# reported conditions: second compound 0.00316 µM; first compound 3.16 µM
Just give me one of these, please: class 1 (active), class 0 (inactive)

| compound | discrete label |
| --- | --- |
| Cc1nc(N2CCC3(CC2)COC(C)C3N)c(CO)nc1Sc1ccnc(N)c1Cl (stereo not drawn) + C=CC(=O)N1CCN(c2nc(OCC3CCCN3C)nc3c(F)c(-c4nc(N)cc(C)c4C(F)(F)F)c(Cl)cc23)C(C)C1 | class 0 |
| CC1(O)CCCC1n1c(=O)c(C(F)F)cc2cnc(NC3CCN(S(C)(=O)=O)CC3)nc21 (stereo not drawn) + C=CC(=O)N1CCN(c2nc(OCC3CCCN3C)nc3c(F)c(-c4nc(N)cc(C)c4C(F)(F)F)c(Cl)cc23)C(C)C1 | class 0 |
| CC(C)NCC(C(=O)N1CCN(c2ncnc3c2C(C)CC3O)CC1)c1ccc(Cl)cc1 (stereo not drawn) + C=CC(=O)N1CCN(c2nc(OCC3CCCN3C)nc3c(F)c(-c4nc(N)cc(C)c4C(F)(F)F)c(Cl)cc23)C(C)C1 | class 0 |
| CC(=O)OC12COC1CC(O)C1(C)C(=O)C(O)C3=C(C)C(OC(=O)C(O)C(NC(=O)OC(C)(C)C)c4ccccc4)CC(O)(C(OC(=O)c4ccccc4)C21)C3(C)C (stereo not drawn) + C=CC(=O)N1CCN(c2nc(OCC3CCCN3C)nc3c(F)c(-c4nc(N)cc(C)c4C(F)(F)F)c(Cl)cc23)C(C)C1 | class 0 |
| CC(Nc1ccc2c(c1)OCCn1cc(N3C(=O)OCC3C(F)F)nc1-2)C(N)=O (stereo not drawn) + C=CC(=O)N1CCN(c2nc(OCC3CCCN3C)nc3c(F)c(-c4nc(N)cc(C)c4C(F)(F)F)c(Cl)cc23)C(C)C1 | class 0 |

## Input Given C[C@@H](NC(=O)c1ncnc(N)c1Cl)c1ncc(C(=O)Nc2cc(C(F)(F)F)c(Cl)cn2)s1 + C=CC(=O)N1CCN(c2nc(OCC3CCCN3C)nc3c(F)c(-c4nc(N)cc(C)c4C(F)(F)F)c(Cl)cc23)C(C)C1 , state the outcome it received in this test.
## Output class 0

## Input Test call for this compound, please: NC1c2ccccc2OC12CCN(c1cnc3c(N4CCCc5ncccc54)n[nH]c3n1)CC2 (stereo not drawn) + C=CC(=O)N1CCN(c2nc(OCC3CCCN3C)nc3c(F)c(-c4nc(N)cc(C)c4C(F)(F)F)c(Cl)cc23)C(C)C1
## Output class 1

## Input Tell me the recorded outcome of this test for CCC(CC)c1cc(NC2CCC(N)C2)n2nccc2n1 (stereo not drawn) + C=CC(=O)N1CCN(c2nc(OCC3CCCN3C)nc3c(F)c(-c4nc(N)cc(C)c4C(F)(F)F)c(Cl)cc23)C(C)C1 .
## Output class 1

Reference for the values: PubChem BioAssay AID2060892
